Values were extracted from patent US7445765B2.

Recorded Biodistribution in rats: Adrenal glands for the following molecules
- EXPERIMENTAL_DETAILS: Biodistribution of the 99mTc(N) heterocomplexes in rats (organ uptake, heart accumulation, heart/lung and heart/liver ratios)
- Type: in vivo, female Sprague-Dawley rats
- ASSAY_SETUP: 30 min post injection
READOUT_KIND: Biodistribution in rats: Adrenal glands (% dose/g)

• CCOCCN1CC[P](CCCOC)(CCCOC)[99Tc+]2(#[N])([S]C(N(CCOCC)CCOCC)=[S]2)[P](CCCOC)(CCCOC)CC1 [[^99mTc(N) (PNP5) (DBODC)]^+] = 3.36
• CCOCCN1CC[P](CCCOC)(CCCOC)[99Tc+]2(#[N])([S]C(N(CCOCC)C(C)C)=[S]2)[P](CCCOC)(CCCOC)CC1 [[^99mTc(N) (PNP5) (ISOET)]^+] = 2.72

* * *

Examples of molecules with documented Heart accumulation follow.
- EXPERIMENTAL_DETAILS: Biodistribution of the 99mTc(N) heterocomplexes in rats (organ uptake, heart accumulation, heart/lung and heart/liver ratios)
- Type: in vivo, female Sprague-Dawley rats
- ASSAY_SETUP: rats, 0 min
READOUT_KIND: Heart accumulation (% ID/g)

- CCOCCC[P]1(CCCOCC)CCN(CCOCC)CC[P](CCCOCC)(CCCOCC)[99Tc+]12(#[N])[S]C(N(CCOCC)CCOCC)=[S]2 [[^99m−Tc(N) (PNP6) (DBODC)^+]]: 2.26
- CCOCCN1CC[P](CCCOC)(CCCOC)[99Tc+]2(#[N])([S]C(N(CCOCC)C(C)C)=[S]2)[P](CCCOC)(CCCOC)CC1 [[^99m−Tc(N) (PNP5) (ISOET)^+]]: 3.35
- COCCC[P]1(CCCOC)CCN(CCOC)CC[P](CCCOC)(CCCOC)[99Tc+]12(#[N])[S]C(N(CCOC)CCOC)=[S]2 [[^99m−Tc(N) (PNP3) (DPODC)^+]]: 3.08
- CCOCCN(CCOCC)C1=[S][99Tc+]2(#[N])([S]1)[P](CCCOC)(CCCOC)CCN(CCOC)CC[P]2(CCCOC)CCCOC [[^99m−Tc(N) (PNP3) (DBODC)^+]]: 3.57
- CCOCCN1CC[P](CCCOC)(CCCOC)[99Tc+]2(#[N])([S]C(N(CCOCC)CCOCC)=[S]2)[P](CCCOC)(CCCOC)CC1 [[^99m−Tc(N) (PNP5) (DBODC)^+]]: 5.01

* * *

Listed compounds paired with reported Biodistribution in rats: Heart
- EXPERIMENTAL_DETAILS: Biodistribution of the 99mTc(N) heterocomplexes in rats (organ uptake, heart accumulation, heart/lung and heart/liver ratios)
- Assay type: in vivo, female Sprague-Dawley rats
- ASSAY_SETUP: 30 min post injection
READOUT_KIND: Biodistribution in rats: Heart (% dose/g)

- CCOCCN1CC[P](CCCOC)(CCCOC)[99Tc+]2(#[N])([S]C(N(CCOCC)CCOCC)=[S]2)[P](CCCOC)(CCCOC)CC1 [[^99mTc(N) (PNP5) (DBODC)]^+]: 3.73
- CCOCCN1CC[P](CCCOC)(CCCOC)[99Tc+]2(#[N])([S]C(N(CCOCC)C(C)C)=[S]2)[P](CCCOC)(CCCOC)CC1 [[^99mTc(N) (PNP5) (ISOET)]^+]: 2.47
